Origin of values: patent US7932281B2

Assign inhibition at 0.01 µM to each entry below.
Biological target: CXCR4 (Homo sapiens, UniProt P61073)
Construct: endogenous in cells; host or cells: MT-4 cells
Sequence (P61073 whole entry): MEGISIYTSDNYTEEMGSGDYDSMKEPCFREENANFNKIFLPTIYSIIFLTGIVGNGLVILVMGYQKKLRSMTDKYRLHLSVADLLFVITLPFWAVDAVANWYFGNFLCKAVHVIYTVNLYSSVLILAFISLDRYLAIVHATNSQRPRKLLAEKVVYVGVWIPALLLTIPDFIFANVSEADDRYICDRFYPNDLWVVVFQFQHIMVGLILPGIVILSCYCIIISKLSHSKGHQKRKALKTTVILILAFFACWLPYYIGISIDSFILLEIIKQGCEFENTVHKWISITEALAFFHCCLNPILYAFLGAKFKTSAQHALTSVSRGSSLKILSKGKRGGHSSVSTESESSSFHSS
Test: Inhibition of 125I-SDF-1α binding to receptors CXCR4 on MT-4 cells (Test Example 2)
Details: binding-inhibition % at 0.01 μM, 2 hours under ice-cooling, read-out: Inhibition rate (%)
Quick reminder: number only, in %, skip the unit.

# input compound: `CCCN(CCC)CCCCN(CC(=O)O)Cc1ccc(CN(Cc2ncc[nH]2)Cc2ncc[nH]2)cc1` ; wanted: its inhibition at 0.01 µM
85

How about this compound: `CCCN(CCC)CCCCN(CC(=O)OC)Cc1ccc(CN(Cc2ncc[nH]2)Cc2nccn2C)cc1`
79.7

Follow-up entry: `CCCN(CCC)CCCCN(Cc1ccc(CN(Cc2ncc[nH]2)Cc2nccn2C)cc1)S(C)(=O)=O`
59.2

Next: `CCCN(CCC)CCCCN(CC(=O)O)Cc1ccc(CN(Cc2nccn2C)Cc2nccn2C)cc1`
79.2

Please answer likewise for `CN(CCCCN1CCCCC1)Cc1ccc(CN(Cc2ncc[nH]2)Cc2nccn2C)cc1`
81.6

Another compound to look at: `CCCN(CCC)CCCCNC(=O)c1ccc(CN(Cc2ccc(C)cn2)Cc2nccn2C)cc1`
73.2

Same lookup for `CCCN(CCC)CCCCN(Cc1ccc(CN(Cc2ncc[nH]2)Cc2nccn2C)cc1)c1ccccc1` , please.
50.1

Another: `CCCN(CCC)CCCCN(CCC#N)Cc1ccc(CN(Cc2ncc[nH]2)Cc2nccn2C)cc1`
85.2

Subsequent entry: `CCCN(CCC)CCCc1cccc(-c2ccc(CN(Cc3ncc[nH]3)Cc3nccn3C)cc2)n1`
58

Also `CCCN(CCC)CCCCc1nc2ccc(CN(Cc3ncc[nH]3)Cc3nccn3C)cc2n1CCC` , if possible.
94.9

Moving on to `CCCN(CCC)CCCCNC(=O)c1cn2cc(CN(Cc3ncc[nH]3)Cc3nccn3C)ccc2n1`
46

Next: CCCN(CCC)CCCCN(C)C(C(=O)OCC)c1ccc(CN(Cc2ncc[nH]2)Cc2nccn2C)cc1 (stereo not shown)
72.7

Please give the result for `CCCN(CCC)CCOCCN(C)Cc1ccc(CN(Cc2ncc[nH]2)Cc2nccn2C)cc1` too.
94.3

Then this compound: CCCN(CCC)CCCCN(C)C(C(=O)O)c1ccc(CN(Cc2ncc[nH]2)Cc2nccn2C)cc1 (stereo not shown)
79.7

And `CCCN(CCC)CCCCN(C)C(=O)N(C)c1ccc(CN(Cc2ncc[nH]2)Cc2nccn2C)cc1` ?
43.4

How about this compound: `CCCN(CCC)CCCCN(CC(=O)OCC)Cc1ccc(CN(Cc2ncc[nH]2)Cc2nccn2C)cc1`
87.7

Next compound up: `CCCN(CCC)CCCCN(CCC(=O)OC)Cc1ccc(CN(Cc2ncc[nH]2)Cc2nccn2C)cc1`
85.5

Ok, now `CCCN(CCC)CCCCN(Cc1ccc(CN(Cc2ncc[nH]2)Cc2nccn2C)cc1)CC(F)(F)F`
47.3

Further, for `CCCN(CCC)CCCc1nc2ccc(CN(Cc3ncc[nH]3)Cc3nccn3C)cc2n1CCC` ?
74.6

Moving on to `CCCN(CCC)CCCCN(CC(=O)OC)Cc1ccc(CN(Cc2ncc[nH]2)Cc2ncc[nH]2)cc1`
82.1

Next record, please: `CCCN(CCC)CCCCN(CC)Cc1ccc(CN(Cc2ncc[nH]2)Cc2nccn2C)cc1`
78.2

Please give the result for `CCCN(CCC)CCCCc1nc2ccc(CN(Cc3ncc[nH]3)Cc3nccn3C)cc2n1C` too.
75.5

Check `CCCN(CCC)CCCCc1nc2cc(CN(Cc3ncc[nH]3)Cc3nccn3C)ccc2n1CCC` too.
67

Queued: `CCCN(CCC)CCCCN(CC(=O)OCC)Cc1ccc(CN(Cc2ncc[nH]2)Cc2ncc[nH]2)cc1`
85.6

And what about the compound CCCN(CCC)CCCCN(Cc1ccc(CN(Cc2ncc[nH]2)C2CCCc3cccnc32)cc1)S(C)(=O)=O (stereo not shown) ?
53.4

Repeat for the following compound: `CCCN(CCC)CCCCN(C)Cc1ccc(CN(Cc2ncc[nH]2)Cc2nccn2C)cc1C(=O)O`
71.3

Would you mind doing `CCCN(CCC)Cc1ccc(NC(=O)c2ccc(CN(Cc3ncc(C)cc3C)Cc3nccn3C)cc2)cc1` as well?
74

Check CCCN(CCC)CCCC1NC(=O)c2ccc(CN(Cc3ncc[nH]3)Cc3nccn3C)cc2NC1=O (stereo not shown) too.
32.9
